Measured TGI, listed per entry.
# System: A498 renal
# METHOD: NCI tumour cell line growth inhibition, 48 h

Worked examples, 5 molecules total:
MOLECULE	TGI
COC(=O)n1c(C[P+](c2ccccc2)(c2ccccc2)c2ccccc2)cc2ccccc21	22.7 µM
C[C@@]12CCCC(=O)N1[C@@H](CO)C(c1ccccc1)O2 (some centres undefined)	> 100 µM
NC(=O)c1cc(I)ccc1NC(=O)COc1ccccc1	7.26 µM
C=C(CNCCc1ccc(O)cc1)[C@@H]1CC[C@]2(CO)CC[C@]3(C)[C@H](CC[C@@H]4[C@@]5(C)CCC(N)C(C)(C)[C@@H]5CC[C@]43C)[C@@H]12 (some centres undefined)	2.79 µM
Cc1cc2occ(-c3ccc(Cl)cc3)c2c(=O)o1	> 100 µM

Identify measured TGI corresponding to COc1cc2nnn3c4ncccc4c(N=O)c3c2cc1OC
35.3 µM

Please give measured TGI of the following entry: Cc1ccc(-n2c3c(c4c(CN5CCOCC5)c(O)ccc42)CCc2ccccc2C3=O)cc1
> 100 µM

Please give the documented TGI of COc1ccc(-c2cc(/C=C/C(=O)c3cc(OC)c(OC)c(OC)c3)[nH]n2)cc1OC
4.99 µM

Look up TGI of CC1(C)CCC2(C(=O)OC3OC(CO)C(O)C(O)C3O)CCC3(CO)C(=CCC4C5(C)CC(O)C(O)C(C)(C(=O)OC6OC(CO)C(O)C(O)C6O)C5CCC43C)C2C1 (centres undefined) and report it.
> 100 µM

###

# System: HCT-15 colon
# METHOD: NCI tumour cell line growth inhibition, 48 h
// reported TGI for each item listed

Examples from the recorded data:
> print(dat)
                                   compound  recorded.value
1  O=C1/C(=C\c2cccc(Oc3ccccc3)c2)SC(c2ccccc2)N1c1cccc([N+](=O)[O-])c1 (stereo unspecified)        > 100 µM
2  O=C(O)C1C(C(=O)O)C2(Cl)C(Cl)=C(Cl)C1(Cl)C2(Cl)Cl.[Cd] (stereo unspecified)         46.6 µM
3             NC(=O)C(=O)n1ncc(Cl)c(Cl)c1=O       > 76.4 µM
4                C[N+](C)=c1nc(N2CCOCC2)ss1        > 100 µM
5  COc1ccc(/C=C(/C(=O)n2cnnn2)c2cc(OC)c(OC)c(OC)c2)cc1        > 100 µM

Switching to the query record.
Quote TGI reported for CC1(C)OC(COCCOCCCCCO)C(COCCOCCCCCO)O1 (stereo unspecified) please.
> 100 µM

###

# System: HCT-116 colon
# METHOD: NCI tumour cell line growth inhibition, 48 h
Respond with True for TGI values of 20 µM and above, False for values below.

# count of solved cases: 5
COMPOUND	ANSWER_LABEL
CC(C)(C)c1c(C(C)(C)C)c(=O)c1=O	True
C[C@@H]1C/C=C\C(=O)O[C@H](/C=C/C#C/C=C/C(C)(C)[C@@H](O)c2cccc(O)c2Br)[C@@H](C)/C=C/[C@H](C)C[C@H](OC(N)=O)C1	False
CC1(C)CCC2(C(=O)OC3OC(CO)C(O)C(O)C3O)CCC3(CO)C(=CCC4C5(C)CC(O)C(O)C(C)(C(=O)OC6OC(CO)C(O)C(O)C6O)C5CCC43C)C2C1 (configuration not stated)	True
COc1ccccc1/C=C\C(=O)c1ccccc1	False
Cn1cc(CO)c2ccccc21	True

Check the entry CCCCCCCCCCCCCCCCOCC(Cl)COP(=O)(O)OP(=O)(O)OCC1OC(n2cnc3c(N)ncnc32)C(O)C1O (configuration not stated) : does TGI equal or exceed 20 µM?
True

Is TGI for CCN(CC)CCCCC1CCN(CC(=O)N2c3ccccc3NC(=O)CC2C)CC1 (configuration not stated) at or above 20 µM?
True

Textbook exercise: given the entry COc1ccc(-c2nc(-c3cnccn3)n(C3OC(CO)C(O)C(O)C3O)n2)cc1 (configuration not stated) , state whether its TGI is greater than or equal to 20 µM.
True

Could you please find out whether COc1ccc(C(=O)C[C@]2(O)C(=O)Nc3c(Cl)ccc(Cl)c32)cc1 has TGI that meets 20 µM or exceeds it?
True

For this compound, is measured TGI 20 µM or higher? COc1ccc2[nH]c(-c3ccccc3)cc2c1
True

Does NC(=O)C(=O)n1ncc(Cl)c(Cl)c1=O have a reported TGI of at least 20 µM?
True

I'd appreciate it if you could say whether CCC(=O)c1cc([N+](=O)[O-])c(Br)s1 has TGI at least equal to 20 µM.
False

Form field: TGI at least 20 µM? Entry: C/C(=N\n1c(N)c(C#N)c(-c2ccc(Cl)cc2)c(C#N)c1=O)c1ccncc1
True
